SYSTEM: human PD-1 / PD-L1-Ig binding on Jurkat cell line over-expressing human PD-1 (Jurkat-PD-1) (Homo sapiens, UniProt Q15116)
Construct: expressed in transfected cells; host or cells: Jurkat
Sequence (Q15116 25-288): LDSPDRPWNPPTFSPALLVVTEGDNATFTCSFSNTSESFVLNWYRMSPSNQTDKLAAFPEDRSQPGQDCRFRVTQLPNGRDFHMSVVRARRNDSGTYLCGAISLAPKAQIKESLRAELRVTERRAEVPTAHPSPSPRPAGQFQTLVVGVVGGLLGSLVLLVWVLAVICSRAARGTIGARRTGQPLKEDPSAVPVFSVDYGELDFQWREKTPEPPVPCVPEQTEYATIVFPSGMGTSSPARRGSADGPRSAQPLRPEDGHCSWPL
ASSAY_INFO: Jurkat-PD-1 Cell Binding High-Content Screening Assay (CBA)
Type: cell-based
ASSAY_CONDITIONS: Jurkat-PD-1 cells, PE-labeled PD-L1-Ig 20 nM final; read-out: Jurkat HPD1_PDL1 IC50
Where a SMILES comes first, the peptide text is derived from it. Bridges are numbered along the chain shown (N, C = ends). [ ]: non-standard residue; d: D form. Bip = N[C@@H](Cc1ccc(-c2ccccc2)cc1)C(=O)O; dDab = NCC[C@@H](N)C(=O)O; Dab = NCC[C@H](N)C(=O)O; Dap = NC[C@H](N)C(=O)O
PARAMETER_MEASURED: IC50 (nM)
The response must be a number in nM with no trailing unit.

{"MOLECULE": "CCC(C)[C@@H]1NC(=O)[C@H](Cc2ccc(-c3ccccc3)cc2)NC(=O)[C@H](C(C)C)NC(=O)[C@H](Cc2cccc(C)c2)NC(=O)[C@H](CC(=O)O)NC(=O)[C@H](Cc2ccc(OCC(=O)O)cc2)NC(=O)[C@H](Cc2ccc(OCC(=O)O)cc2)NC(=O)CSC[C@@H](C(=O)N[C@@H](C)C(N)=O)NC(=O)[C@H](CO)NC(=O)[C@H](C(C)C)NC(=O)[C@H](CC2CCCCC2)NC(=O)[C@H](CCN)NC(=O)[C@@H](CC(C)C)NC(=O)[C@H](CCCN)NC1=O (some centres unmarked)", "RECORDED_NUMBER": 21.3}

Exam item: Fill in the blank: the reported IC50 of CC(C)C[C@H]1NC(=O)[C@H](CCCN)NC(=O)[C@H](CCCNC(N)=O)NC(=O)[C@H](Cc2ccc(-c3ccccc3)cc2)NC(=O)[C@H](C(C)C)NC(=O)[C@H](Cc2c[nH]c3ccccc23)NC(=O)[C@H](CC(=O)O)NC(=O)[C@H](Cc2cccs2)NC(=O)[C@H](CN)NC(=O)CSC[C@@H](C(=O)N[C@@H](C)C(N)=O)NC(=O)[C@H]([C@@H](C)O)NC(=O)[C@H](C(C)C)NC(=O)[C@H](CC2CCCCC2)NC(=O)[C@H](CCN)NC1=O is ____.
Marked response: 7.5

Exam item: Now try CC(C)C[C@@H]1NC(=O)[C@H](Cc2c[nH]c3ccccc23)NC(=O)[C@H](CC(=O)O)NC(=O)[C@H](Cc2ccc(O)cc2)NC(=O)[C@H](Cc2ccccc2)NC(=O)CSC[C@@H](C(=O)N[C@@H](C)C(N)=O)NC(=O)[C@H](CO)NC(=O)[C@H](C(C)C)NC(=O)[C@H](CC(C)C)NC(=O)[C@H](CCN)NC(=O)[C@@H](C)NC(=O)[C@H](CCN)NC(=O)[C@H](C(C)C)NC(=O)[C@H](Cc2ccc(-c3ccccc3)cc2)NC1=O [Compound 1104] ({CH2CO}-FYDWL[Bip]V[Dab][dA][Dab]LVSCA-NH2; thioether N-14) .
Marked response: 43.6

Exam item: Here is the next molecule: CC(C)C[C@@H]1NC(=O)[C@H](Cc2c[nH]c3ccccc23)NC(=O)[C@H](CC(=O)O)NC(=O)[C@H](Cc2ccc(O)cc2)NC(=O)[C@H](Cc2ccccc2)NC(=O)CSC[C@@H](C(=O)N[C@@H](C)C(N)=O)NC(=O)[C@H](CO)NC(=O)[C@H](C(C)C)NC(=O)[C@H](CC(C)C)NC(=O)[C@H](CC(N)=O)NC(=O)[C@@H](CC(C)C)NC(=O)[C@H](CN)NC(=O)[C@H](CCC(=O)O)NC(=O)[C@H](Cc2ccc(-c3ccccc3)cc2)NC1=O [Compound 1226] ({CH2CO}-FYDWL[Bip]E[Dap][dL]NLVSCA-NH2; thioether N-14)
Marked response: 32.2

Exam item: # iterate: CC(C)C[C@@H]1NC(=O)[C@H](Cc2c[nH]c3ccccc23)NC(=O)[C@H](CC(=O)O)NC(=O)[C@H](Cc2ccc(O)cc2)NC(=O)[C@H](Cc2ccccc2)NC(=O)CSC[C@@H](C(=O)N[C@@H](C)C(N)=O)NC(=O)[C@H](CO)NC(=O)[C@H](C(C)C)NC(=O)[C@H](CC(C)C)NC(=O)[C@H](CC(N)=O)NC(=O)[C@@H](C)NC(=O)[C@@H](CCN)NC(=O)[C@H](C(C)C)NC(=O)[C@H](Cc2ccc(-c3ccccc3)cc2)NC1=O [Compound 2003] ({CH2CO}-FYDWL[Bip]V[dDab][dA]NLVSCA-NH2; thioether N-14)
Marked response: 35

Exam item: Same again, this time with CC(C)C[C@@H]1NC(=O)[C@H](CCN)NC(=O)[C@@H](CC(C)C)NC(=O)[C@@H](CCN)NC(=O)[C@H](C(C)C)NC(=O)[C@H](Cc2ccc(-c3ccccc3)cc2)NC(=O)[C@H](C(C)C)NC(=O)[C@H](Cc2c[nH]c3ccccc23)NC(=O)[C@H](CC(=O)O)NC(=O)[C@H](Cc2ccc(O)cc2)NC(=O)[C@H](CC(N)=O)NC(=O)CSC[C@@H](C(=O)N[C@@H](C)C(N)=O)NC(=O)[C@H]([C@@H](C)O)NC(=O)[C@H](C(C)C)NC1=O [Compound 1023] ({CH2CO}-NYDWV[Bip]V[dDab][dL][Dab]LVTCA-NH2; thioether N-14)
Marked response: 4.6

Exam item: Another molecule to look at: CC(C)C[C@H]1NC(=O)[C@H](CCCN)NC(=O)[C@H](CN)NC(=O)[C@H](Cc2ccc(-c3ccccc3)cc2)NC(=O)[C@H](C(C)C)NC(=O)[C@H](Cc2c[nH]c3ccccc23)NC(=O)[C@H](CC(=O)O)NC(=O)[C@H](Cc2ccc(OCC(=O)O)cc2)NC(=O)[C@H](CN)NC(=O)CSC[C@@H](C(=O)N[C@@H](C)C(N)=O)NC(=O)[C@H]([C@@H](C)O)NC(=O)[C@H](C(C)C)NC(=O)[C@H](CC2CCCCC2)NC(=O)[C@H](CCN)NC1=O
Marked response: 7.2

Exam item: Thanks! And CCC(C)[C@@H]1NC(=O)[C@H](Cc2ccc(-c3ccccc3)cc2)NC(=O)[C@H](C(C)C)NC(=O)[C@H](Cc2cccc(C)c2)NC(=O)[C@H](CC(=O)O)NC(=O)[C@H](Cc2cccnc2)NC(=O)[C@H](Cc2ccncc2)NC(=O)CSC[C@@H](C(=O)N[C@@H](C)C(N)=O)NC(=O)[C@H]([C@@H](C)O)NC(=O)[C@H](C(C)C)NC(=O)[C@H](CC2CCCCC2)NC(=O)[C@H](CCN)NC(=O)[C@@H](CC(C)C)NC(=O)[C@H](CCCN)NC1=O (some centres unmarked) ?
Marked response: 22.8
